These data points were gathered from patent US20220348558A1.

- Test system: VEEV TC83
- Test description: microbe, parasite or virus in culture
- Type: cell-based
- Condition: Venezuelan equine encephalitis virus, Vero 76, 48 h, read-out: VEEV TC83 EC50 nM
Observable: EC50

// below: answered molecules
# Molecule, Measurement target, Experimental value
measured = [
    ("COc1ccc(-n2c([C@@H]3CCCN3)nc3c(-c4cccnc4)cc(C#N)cc3c2=O)cc1F [Example 108]", "VEEV TC83", "1 to 50 nM"),
    ("Cc1cc([N+](=O)[O-])cc2c(=O)n(-c3ccc(Cl)c(F)c3)c([C@H]3CCCN3)nc12 [Example 60]", "VEEV TC83", "1 to 50 nM"),
    ("Cc1ccccc1-n1c([C@H]2CCCN2)nc2ccc([N+](=O)[O-])cc2c1=O [Example 35]", "VEEV TC83", "> 1000 nM"),
]

Lab note: next molecule to report on.
Need EC50 of COc1c(F)cc(-n2c(C34CC(CN3)C4)nc3c(-c4cc(C)nc(C)c4)cc(C#N)cc3c2=O)cc1F [Example 174] , thanks.
51 to 150 nM

====

- System: WEEV California
- Test description: microbe, parasite or virus in culture
- Assay type: cell-based
- Condition: Western equine encephalitis virus, Vero 76, 48 h, read-out: WEEV California EC50 nM
Here, each record is paired with measured EC50 data.

// below: answered compounds
# Compound, EC50
measured = [
    ("COc1ccc(-n2c([C@H]3CCCN3)nc3c(C4CC4)cc([N+](=O)[O-])cc3c2=O)cc1", "51 to 150 nM"),
    ("COc1ccc(-n2c([C@@H](C)N(C)C)nc3ccc([N+](=O)[O-])cc3c2=O)cc1", "151 to 500 nM"),
]

Lab note: next compound to report on.
Any idea what EC50 came out for `COc1ccc(-n2c([C@H]3CCCN3)nc3c(-c4ccc(F)nc4)cc(C#N)cc3c2=O)cc1F` on WEEV California?
1 to 50 nM

====

- System: VEEV TC83
- Test description: microbe, parasite or virus in culture
- Format: cell-based
- Condition: Venezuelan equine encephalitis virus, Vero 76, 48 h, read-out: VEEV TC83 EC50 nM
Here, each record is paired with measured EC50 data.

// below: answered compounds
# Compound, Observable, Experimental value
records = [
    ("COc1ccc(-n2c(C3CCCN3)nc3c(-c4ccc(C(C)=O)nc4)cc(C#N)cc3c2=O)cc1F (stereo not shown)", "EC50", "1 to 50 nM"),
    ("COc1ccc(-n2c([C@@H]3CCCN3)nc3c(-c4ccncc4)cc([N+](=O)[O-])cc3c2=O)cc1F", "EC50", "1 to 50 nM"),
    ("COc1ccc(-n2c([C@@H]3CCCN3C)nc3ccc([N+](=O)[O-])cc3c2=O)cc1", "EC50", "1 to 50 nM"),
]

Lab note: next compound to report on.
Need EC50 of `COc1ccc(-n2c(-c3cncn3C)nc3c(-c4ccc(C)nc4)cc(C#N)cc3c2=O)cc1F` , thanks.
> 1000 nM

====

- Tested on: VEEV TC83
- Test description: microbe, parasite or virus in culture
- Type: cell-based
- Condition: Venezuelan equine encephalitis virus, Vero 76, 48 h, read-out: VEEV TC83 EC50 nM
Here, each record is paired with measured EC50 data.

# Compound, Measurement target, Experimental value
data = [
    ("O=c1c2cc([N+](=O)[O-])ccc2nc([C@H]2CCCN2C2CCOCC2)n1-c1ccccc1", "VEEV TC83", "501 to 1000 nM"),
    ("COc1ccc(-n2c(C[C@H]3CCCN3)nc3c(-c4ccc(C)nc4)cc(C#N)cc3c2=O)cc1F", "VEEV TC83", "151 to 500 nM"),
    ("COc1c(F)cc(-n2c(C3CCCN3)nc3c(C#CC(C)(C)O)cc(C#N)cc3c2=O)cc1F (stereo not shown)", "VEEV TC83", "51 to 150 nM"),
]

Need EC50 of `COc1ccc(-n2c([C@H]3C[C@H](F)CN3)nc3c(-c4ccc(C)nc4)cc(C#N)cc3c2=O)cc1F` , thanks.
1 to 50 nM
